# System: K-562 leukemia
# Procedure Summary: NCI-60 one-dose screen, 48 h (100 = growth as untreated, 0 = no growth, -100 = all killed)
# Test Conditions: 10 µM unless noted
This is part of a sample that, as a whole, favours compounds with a hit. Of some 83,000 tested, about 20% had one in any assay.
Quantity: growth (%)
# number only, unit % dropped from output

Here is how some compounds turned out for growth.
INSERT INTO measurements (compound, numeric_result) VALUES
  ('O=C(CSc1nnc(-c2ccc(-c3nc4ccccc4[nH]3)cc2)o1)Nc1ccc(Br)cc1', 11),
  ('N/C(=N\c1nc2ccccc2s1)NC(=O)Nc1ccccc1F', 13.1),
  ('Cc1cc(N=C(N)c2ccccc2)ccc1OCCCCCCCCn1ccnc1', 12.4),
  ('O=C(N/N=C/c1ccc(-c2cccc([N+](=O)[O-])c2)s1)c1[nH]c2ccc(Br)cc2c1-c1ccccc1', 92.7),
  ('O=C(N/N=C/c1occc1Br)c1[nH]c2ccc(Br)cc2c1-c1ccccc1', 6.6);

Kindly note the recorded growth for N#C/C(=C1/C(=O)Nc2ccccc21)c1nnc(NC(=O)c2ccc(-n3c(=O)[nH]c4ccccc4c3=O)cc2)s1 , which is 15.9

Kindly note the recorded growth for O=C(Nc1nc2ccccc2s1)Nc1ccccc1Cl , which is 86.2

Kindly note the recorded growth for COc1cc(C2CC(c3ccc(C(F)(F)F)cc3)=Nc3c(N)nc(N)nc3N2)ccc1Oc1nc(Nc2ccc(F)cc2)nc(N(C)C)n1 (centres undefined) , which is 7.52

Kindly note the recorded growth for CC1=C(C(=O)Nc2ccccc2)C(c2cccc3ccccc23)n2c(nc3ccccc32)N1 (centres undefined) , which is 82.9

====

Known growth of a selection of compounds
# Test system: NCI-H522 lung
# Procedure Summary: NCI-60 one-dose screen, 48 h (100 = growth as untreated, 0 = no growth, -100 = all killed)
# Test Conditions: 10 µM unless noted
About 83,000 compounds went through this panel and 20% of them were active in at least one assay; those are over-represented in the sample as a whole.
# number only, unit % dropped from output

Here is how some compounds turned out for growth.
INSERT INTO measurements (compound, experimental_system, quantity, unit_label, numeric_result) VALUES
  ('O=C(Nc1ccc(S(=O)(=O)N2CCCCC2)cc1)C(Cl)Cl', 'NCI-H522 lung', 'growth', '%', 98.4),
  ('Cc1cc(=O)oc2cc(OCC(O)CNN3C(=O)c4cccc5c(N6CCN(C)CC6)ccc(c45)C3=O)ccc12 (centres undefined)', 'NCI-H522 lung', 'growth', '%', 98.2);

Kindly note the recorded growth for O=C1CCC(N2C(=O)c3cccc(NCCCCCC(=O)N4CCN(c5ccc6nc7c(nc6c5C(F)(F)F)C(=O)c5ncccc5C7=O)CC4)c3C2=O)C(=O)N1 (centres undefined) , which is -62

Kindly note the recorded growth for Oc1ccc(F)c(Nc2nc(SCCN3CCOCC3)nc3c2cnn3CC(Cl)c2ccc(Br)cc2)c1 (centres undefined) , which is 29.2

Kindly note the recorded growth for O=C(CSc1nnc(-c2ccc(-c3nc4ccccc4[nH]3)cc2)o1)Nc1ccc(Br)cc1 , which is 12.8

Kindly note the recorded growth for COc1ccc(C2=Nc3c(N)nc(N)nc3NC(c3ccc(Oc4nc(Nc5ccc(F)cc5)nc(N(C)C)n4)c(OC)c3)C2)cc1 (centres undefined) , which is 88

Kindly note the recorded growth for COc1ccc(OC)c(Cn2cc(C#N)c(N)c2C(=O)c2ccc(Br)cc2)c1 , which is -29

Kindly note the recorded growth for c1n[nH]cc1-c1nc2ccc3[nH]ncc3c2c2c1CC1(CCOCC1)CC2 , which is 7.31

Kindly note the recorded growth for COc1ccccc1NC(=O)c1ccc(NC(=O)CCl)s1 , which is -77.3

Kindly note the recorded growth for COc1ccc(NC(=O)CSc2nnc(-c3ccc(-c4nc5ccccc5[nH]4)cc3)o2)cc1 , which is 0.861
